experiment: binders of probe aFGF10 on microarray, primary screen, stem cell growth factor project, biochemical, small-molecule microarray, fluorescence 635/667 (AID 1071); conditions: higher = more signal;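 note: score merges 667 nm spot intensity and signal to noise from triplicate slides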
Listed here are molecules together with their documented composite z-score.
observed_property: composite z-score

molecule=CCOC(=O)CCN1C(=O)[C@H]2[C@H]3[C@H](O)[C@H](O)CC(=NOCC(C)C)[C@@H]3CC[C@H]2C1=O observed_property="composite z-score" endpoint_result=-1.05
molecule=CC(C)=CCCC(C)=CCON=C1C[C@@H](O)[C@@H](O)[C@@H]2[C@@H]3C(=O)N(c4cccc(Oc5ccccc5)c4)C(=O)[C@@H]3CC[C@H]12 observed_property="composite z-score" endpoint_result=0.0259
molecule=CCOC(=O)CCN1C(=O)[C@H]2[C@H]3[C@H](O)[C@H](O)CC(=NNC(=O)OCC)[C@H]3CC[C@H]2C1=O observed_property="composite z-score" endpoint_result=-0.188
molecule=CC(=O)OC[C@H]1O[C@@H](ON=C(C)C)[C@H](OC(C)=O)[C@@H](OC(C)=O)[C@@H]1OC(C)=O observed_property="composite z-score" endpoint_result=-0.526
molecule="CCCCOC(OCCCC)C(O)CSc1ccc2ccccc2c1 (stereo unspecified)" observed_property="composite z-score" endpoint_result=0.291
molecule=CCc1cc2c(nc1CC)CCN(CCC(C)=NOC[C@@H](C)[C@H](OCc1ccccc1)C(C)C)C2 observed_property="composite z-score" endpoint_result=-1.25
